// reported protein stability index per item
experiment: protein stability index of a GFP-peptide fusion (yeast GPS) (PSI 1-4); higher = more stable; sorted into four equal gates, so the index is relative within each strain; settings: pdr5∆
Quick one: just the number, no unit, thanks!

Past entries and their recorded results:
chain | protein stability index
ELGNMTMLITGQRPDRA [SIN4] | 2.83
AKKLPNGNWEVGVHIAD [DIS3] | 2.25
QTLKGVGVENNGQYAAF [RPC37] | 3.31
AFGEFSLEGCVEMAWIM [FAS2] | 2.63
TIKVAGTPLLEVRGQVP [SNU114] | 2.69
LLDEEAEQSFDQQSPWL [RPO21] | 3.25
DLIHKSEAFPSLQSCSV [SMC4] | 2.32
ATLGIDPPKGILLYGPP [RPT1] | 2.96
TPEMNVTNNVEEGEFII [TAF14] | 2.43
EYTINLHKRLHGVSFKK [RPL31A] | 2.19

Data request, read-out protein stability index, for KELTRIPGEEVEETEVP [MED4]
3.23

Query IMDNFLERTAIELKTDW [RPN1] next
2.99

Query LLYELTAFKATVFFLIR [YJL039C/NUP192] next
2.36

Query KPLKKGSADIGASVISL [SIR4] next
3.14

* * *

test: protein stability index of a GFP-peptide fusion (yeast GPS) (PSI 1-4); higher = more stable; sorted into four equal gates, so the index is relative within each strain; conditions: pdr5∆
Tick MET if protein stability index is 3 or greater. Tick NOT MET if protein stability index is less than 3.

chain | group
DVCKTRFNHLVTRLFFI [YML031W/NDC1] | NOT MET
KYRKRQLVTREAQIKDW [FAS2] | NOT MET
WTVLFRKHHKKGITEEV [RPL24A] | NOT MET
LSALFTISSKPDILATD [YCS4] | NOT MET
DHEFVLISLIMTTWRKL [YMR129W/POM152] | NOT MET

Test whether the sequence NIFKAEMDSVSKSMKFS [CSN9] records protein stability index of 3 or higher.
NOT MET

Query VQASVTSSTHERKSKTY [RET1] next
NOT MET

Query HSDMASKMYNTDKKAFL [PRP8] next
NOT MET

Query DLISEILKWVQWSRIVL [MED1] next
MET

Query FVDDTNVYRVTVHKTFE [PRP8] next
NOT MET

Query YNNKVGVAASQGSMSER [SIR2] next
NOT MET

Query SKQDASPKPYAVKYGLN [RPL8A] next
MET

Query KSNVIDSMLFVFGFRAN [SMC4] next
NOT MET

Query KNINIGKHSQEQNSSSA [SIR4] next
MET

Query RDYQRINKNSKIALREY [POP4] next
NOT MET

Query GGSSDTADKIRIHAKNF [GAL11] next
NOT MET

Query IIMQADLALKMGVPIYG [FAS2] next
NOT MET

Query CKLFDKISFNLRLKLFL [SRB8] next
NOT MET

Query FVAKLAAQIFGSYNAFE [COR1] next
NOT MET

Query ELAAKEEPAKEEAPAPT [FAS2] next
MET

Query KIKDVQQQIESNEEQRN [SMC3] next
MET

Query GEVMKELSEEKYIVKAS [RPT4] next
MET

Query RAGVTHVLSRLSYISAL [RET1] next
NOT MET

Query YSKSFEQFKMVSMITDH [POP1] next
NOT MET

Query RDEMSKAELPQWYTLQS [MED8] next
MET

Query SSHLSDNDFIINDFKKI [POP5] next
NOT MET
